experiment: Indomethacin levels in uterus, placenta and fetus after IND or LIP-IND (Example 1); assay type: in vivo, pregnant mouse; conditions: female, mouse, placenta; four hours following administration, mean ± sem
metric_name: concentration at 4 h (ng/g)
Numbers only, in ng/g.

Query :: Could you share which concentration at 4 h value was measured for `COc1ccc2c(c1)c(CC(=O)O)c(C)n2C(=O)c1ccc(Cl)cc1` ?
Result :: 650

###

experiment: IND concentrations in maternal uterus and fetus by LC-MS/MS; assay type: in vivo, pregnant CD1 mice; settings: female, CD1, mouse, fetus, intravenous, 1 mg/kg
metric_name: concentration at 4 h (ng/g)
One number for each entry, in ng/g.

Query :: Could you share which concentration at 4 h value was measured for `COc1ccc2c(c1)c(CC(=O)O)c(C)n2C(=O)c1ccc(Cl)cc1` ?
Result :: 245
